Reported growth is given for each of the following compounds.
tested on: NCI-H226 lung; experiment: NCI-60 one-dose screen, 48 h (100 = growth as untreated, 0 = no growth, -100 = all killed); conditions: 10 µM
Compounds without any hit were thinned out: in the full panel of roughly 83,000, 20% have a hit.
Parameter: growth (%)

1. O=C(O)CN1C(=O)C=CC1=O: 108
2. CN(C1c2ccccc2Oc2ccccc21)S(=O)(=O)c1cc(Cl)ccc1Cl: 62.7
3. COc1ccc(-c2nc(SCC(=O)c3ccc(Br)cc3)[nH]c(=O)c2C#N)cc1: 98.1
4. COc1cc(OC)cc(N2CCN(C(=O)Nc3nc4cc(F)ccc4nc3OC)CC2)c1: 43.3
5. O=C(NNc1nc(N2CCCC2)nc(N2CCCC2)n1)c1ccccc1: 107
6. CCCc1ccnc(NS(=O)(=O)c2ccc(N)cc2)n1: 79.2
7. CC1(C)CC(OCCCC[P+](c2ccccc2)(c2ccccc2)c2ccccc2)CC(C)(C)N1O: 12.7
8. COc1c(C)c(C)c(OC)c2c1[nH]c(=O)c1c3cccnc3cn21: 99
9. O=S(=O)(O)C1(O)CCCCC1: 95.4
10. Nc1cc(O)cc(O)c1: 107
11. COC1OC2COC(c3ccccc3)OC2C(=O)C1NC(=O)c1ccccc1 (stereo unspecified): 106
